This collection of values is drawn from paper PMC6547740.

System: HGC-27 cells
experiment: MTT cell viability, HGC-27
Type: cell-based
condition.parameters: Homo sapiens, gastric cancer cell line, 72 h
parameter: pIC50
Formally, pIC50 is defined as -log10 of the concentration c, with c in mol/L.

// compound C#CCSc1nc(NNC(N)=S)c(C#N)c(-c2ccc3oc(=O)ccc3c2)n1 [MI-743] , assay HGC-27 cells, pIC50 value: 5.94

---

Tested on: SGC-7901 cells
experiment: MTT cell viability, SGC-7901
Format: cell-based
condition.parameters: Homo sapiens, gastric cancer cell line, 72 h
parameter: pIC50
FYI, pIC50 means -log10 of a concentration in mol per litre.

Record C#CCSc1nc(NNC(N)=S)c(C#N)c(-c2ccc3oc(=O)ccc3c2)n1 , field pIC50: 4.98

---

// reported IC50 per item
System: GES-1 cells
experiment: MTT cell viability, GES-1
Assay type: cell-based
condition.parameters: Homo sapiens, GES1, normal gastric epithelial cell line, 72 h

- C#CCSc1nc(NNC(N)=S)c(C#N)c(-c2ccc3oc(=O)ccc3c2)n1 [MI-743]: 25.5 µM

According to the records, this compound COc1ccccc1NC(=O)NC(=O)CSC(=S)N1CCCC1 [MI-929] displays IC50 of > 50 µM

---

target.system: MTH1 (Homo sapiens, UniProt P36639)
experiment: MTH1 recombinant protein activity / inhibitor screening (malachite green)
Format: biochemical
Parameters: His-tag; made in house; host or cells: E. coli BL21(DE3)
condition.parameters: 5 nM recombinant MTH1, dGTP substrate, absorbance 630 nm; read-out: IC50 (MTH1 inhibition)
parameter: IC50 (µM)
Write down the numeric answer in µM and omit the unit.

- Cc1ccc(Nc2nc(SCc3cn(CC(=O)NC(=O)Nc4ccccn4)nn3)nc(-c3ccc(Br)cc3)c2C#N)cc1: 0.461

Consider the record given below.
Measured IC50, C#CCSc1nc(NNC(N)=S)c(C#N)c(-c2ccc3oc(=O)ccc3c2)n1 : 0.0914
